Biological target: T1, IL10 receptor (IL10 receptor subunit alpha IL10Ra and beta subunit IL10Rb) on Ramos/STAT3-Luc and … (UniProt Q13651 22-578; Q08334 20-325, limits assumed)
T1 sequence (looked up) 1: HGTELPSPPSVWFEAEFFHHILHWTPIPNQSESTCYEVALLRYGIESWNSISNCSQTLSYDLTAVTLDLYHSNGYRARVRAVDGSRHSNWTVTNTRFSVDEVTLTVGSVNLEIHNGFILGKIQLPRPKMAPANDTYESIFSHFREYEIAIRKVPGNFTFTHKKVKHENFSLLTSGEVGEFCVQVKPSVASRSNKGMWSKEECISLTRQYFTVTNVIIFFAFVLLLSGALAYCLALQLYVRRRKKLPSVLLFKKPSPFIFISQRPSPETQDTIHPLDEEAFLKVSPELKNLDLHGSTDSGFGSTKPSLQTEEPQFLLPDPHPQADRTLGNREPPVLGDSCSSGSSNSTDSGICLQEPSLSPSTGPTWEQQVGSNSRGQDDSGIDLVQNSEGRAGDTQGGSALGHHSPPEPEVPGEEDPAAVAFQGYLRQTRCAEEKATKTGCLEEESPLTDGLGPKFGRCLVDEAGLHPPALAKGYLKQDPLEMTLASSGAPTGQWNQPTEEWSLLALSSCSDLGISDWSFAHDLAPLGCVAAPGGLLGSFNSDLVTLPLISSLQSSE
T1 sequence (looked up) 2: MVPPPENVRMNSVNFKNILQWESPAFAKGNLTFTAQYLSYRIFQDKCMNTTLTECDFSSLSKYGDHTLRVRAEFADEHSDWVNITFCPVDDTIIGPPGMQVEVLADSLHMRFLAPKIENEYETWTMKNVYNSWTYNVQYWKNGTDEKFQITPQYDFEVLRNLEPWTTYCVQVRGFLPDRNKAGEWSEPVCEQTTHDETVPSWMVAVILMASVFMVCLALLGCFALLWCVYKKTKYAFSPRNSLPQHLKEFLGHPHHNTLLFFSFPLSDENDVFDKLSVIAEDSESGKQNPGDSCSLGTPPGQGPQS
Experiment: cell-based or functional assay
ASSAY_METRIC: EC50 of luciferase activity, Ramos/Stat3-Luc reporter cells (nM)
Note: unit nM is implicit; provide only the numeric part.

Qu. Consider the binder IL10M7 (hIL10-1XG4S-Fc; Fc is IgG4s) (Fc fusion) SPGQGTQSENSCTHFPGNLPNMLRDLRDAFSRVKTFFQMKDQLDNLLLKESLLEDFKGYLGCQALSEMIQFYLEEVMPQAENQDPDIKAHVNSLGENLKTLRLRLRRCHRFLPCENKSKAVEQVKNAFNKLQEKGIYKAMSEFDIFINYIEAYMTMKIRNGGGGSESKYGPPCPPCPAPPVAGPSVFLFPPKPKDTLMISRTPEVTCVVVDVSQEDPEVQFNWYVDGVEVHNAKTKPREEQFNSTYRVVSVLTVLHQDWLNGKEYKCKVSNKGLPSSIEKTISKAKGQPREPQVYTLPPSQEEMTKNQVSLTCLVKGFYPSDIAVEWESNGQPENNYKTTPPVLDSDGSFFLYSRLTVDKSRWQEGNVFSCSVMHEALHNHYTQKSLSLSLGK and give its measured EC50 of luciferase activity, Ramos/Stat3-Luc reporter cells.
Ans. 0.172
